# assayedTarget: TNF-alpha (UniProt P01375 77-233)
# Sequence (P01375 77-233): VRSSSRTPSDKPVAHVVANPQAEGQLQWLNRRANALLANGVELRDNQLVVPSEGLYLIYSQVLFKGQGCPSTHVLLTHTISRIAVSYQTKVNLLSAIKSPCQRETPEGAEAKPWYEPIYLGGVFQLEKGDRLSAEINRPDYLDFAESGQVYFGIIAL
# assayExplanation: graphene FET (Hill-Langmuir fit); no PEG, 1x PBS; 1x PBS, artificial sweat (10x diluted or undiluted) or undiluted lavage fluid; aptamer immobilized on graphene; pH and temperature not stated
# conditionNotes: protein: commercial; chain copies: 3; G-quadruplex, two G-tetrads
quantityKind: pKd
# reply with the number alone; pKd is -log10 of concentration in mol/L

**Q:** Tell us which pKd value is on record for TGGTGGATGGCGCAGTCGGCGACAA (ssDNA, 5'-NH2) [TNF-alpha aptamer]
**A:** 8.55
